Target: T1, Purified FHR3 with C-terminal biotinylated Avitag (human, UniProt Q02985 19-330, biotin on the C-terminal Avitag)
T1 construct: Immobilised on a NeutrAvidin NLC chip for SPR; also called complement factor H-related protein 3; hFHR3; not shown: C-terminal biotinylated Avitag
T1 sequence (looked up): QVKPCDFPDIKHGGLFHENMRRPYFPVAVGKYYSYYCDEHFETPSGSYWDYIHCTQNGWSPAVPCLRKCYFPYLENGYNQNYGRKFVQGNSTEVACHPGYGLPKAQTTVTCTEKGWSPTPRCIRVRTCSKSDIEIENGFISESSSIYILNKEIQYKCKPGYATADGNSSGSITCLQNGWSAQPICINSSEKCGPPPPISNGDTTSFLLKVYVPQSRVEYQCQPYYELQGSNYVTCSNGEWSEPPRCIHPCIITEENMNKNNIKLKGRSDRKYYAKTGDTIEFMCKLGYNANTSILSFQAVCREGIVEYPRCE
Experiment: SPR, ProteOn XPR36; biotinylated FHR3 on NeutrAvidin NLC chip
Positions of bridges follow the written chain, without caps; N, C: chain ends. Non-standard residues stand in square brackets, D forms with d. Groups on a side chain read outwards from the residue. tri‑GalNAc ASGPR ligand = not defined here; NMeF = CN[C@@H](Cc1ccccc1)C(=O)O; Tic = O=C(O)[C@@H]1Cc2ccccc2CN1; NMeA = CN[C@@H](C)C(=O)O; Sar = CNCC(=O)O
# pKd annotations
Quick note: pKd means taking -log10 of the concentration in moles per liter.

Some solved entries appear below for comparison.
{CH2CO}-FK([dPEG9 diacid-tri‑GalNAc ASGPR ligand])[NMeA]SLHW[NMeA]RPDRCG-NH2 (other, thioether N-13; reading uncertain) [Bifunctional compound (BFC-14)]; 7.10
{CH2CO}-FK[NMeA]SLHW[NMeA]RPDRCG-NH2 (thioether N-13; SMILES CC(C)C[C@@H]1NC(=O)[C@H](CO)NC(=O)[C@H](C)N(C)C(=O)[C@H](CCCCN)NC(=O)[C@H](Cc2ccccc2)NC(=O)CSC[C@@H](C(=O)NCC(N)=O)NC(=O)[C@H](CCCNC(=N)N)NC(=O)[C@H](CC(=O)O)NC(=O)[C@@H]2CCCN2C(=O)[C@H](CCCNC(=N)N)NC(=O)[C@H](C)N(C)C(=O)[C@H](Cc2c[nH]c3ccccc23)NC(=O)[C@H](Cc2c[nH]cn2)NC1=O, Synthetic cyclic peptide; also called FHR3 receptor ligand compound (C13)) [Cyclic peptide compound (C13)]; 7.32

Consider the binder shown here: {CH2CO}-F[NMeF][NMeA]SLHW[NMeA]RKDRCG-NH2 (thioether N-13, also called FHR3 receptor ligand compound (C15)) [Cyclic peptide compound (C15)] What is its recorded pKd?
7.82

Which pKd is reported for this binder? {CH2CO}-FR[NMeF]SVNY[Sar]RK[Tic]N[NMeF]CG-NH2 (thioether N-14; SMILES CC(C)[C@@H]1NC(=O)[C@H](CO)NC(=O)[C@H](Cc2ccccc2)N(C)C(=O)[C@H](CCCNC(=N)N)NC(=O)[C@H](Cc2ccccc2)NC(=O)CSC[C@@H](C(=O)NCC(N)=O)NC(=O)[C@H](Cc2ccccc2)N(C)C(=O)[C@H](CC(N)=O)NC(=O)[C@@H]2Cc3ccccc3CN2C(=O)[C@H](CCCCN)NC(=O)[C@H](CCCNC(=N)N)NC(=O)CN(C)C(=O)[C@H](Cc2ccc(O)cc2)NC(=O)[C@H](CC(N)=O)NC1=O, Synthetic cyclic peptide; also called FHR3 receptor ligand compound (C16)) [Cyclic peptide compound (C16)]
7.89

So what does the record say about pKd for {CH2CO}-FR[NMeF]SVNY[Sar]RK([dPEG9 diacid-tri‑GalNAc ASGPR ligand])[Tic]N[NMeF]CG-NH2 (other, thioether N-14; reading uncertain) [Bifunctional compound (BFC-17)] ?
7.26
